# method: Inhibition of mycophenolic acid (1 mM) glucuronidation by human UGT enzymes from liver microsomes
# Design: species or system Microsome
assay_endpoint: pIC50
Please keep in mind that pIC50 is minus log10 of the molar concentration; only the number is needed.

The examples below pair each entry with its known result.
compound	observed
O=C(O)c1cc(-c2ccc(F)cc2F)ccc1O [DIFLUNISAL]	3.96
O=C(O)c1ccccc1Nc1cccc(C(F)(F)F)c1 [FLUFENAMIC ACID]	4.72
O=C(O)c1cccnc1Nc1cccc(C(F)(F)F)c1 [NIFLUMIC ACID]	5.10

API: the following record is the query input.
Requested read-out: pIC50. Entry: Cc1cccc(Nc2ccccc2C(=O)O)c1C [MEFENAMIC ACID]
4.20
